The values you see were collected from patent US10774064B2.

Target: small-conductance Ca2+-activated K+ channels (SK channels, subtype 2) (Homo sapiens, UniProt Q9H2S1)
Construct: expressed in transfected cells; host or cells: HEK293
Assay: whole-cell patch-clamp of ionic current through SK2 channels in HEK293 cells (SC100)
Format: cell-based
Conditions: whole-cell patch-clamp, HEK293 cells expressing SK2 channels; concentration that increases the basal current by 100%
outcomeMeasure: SC100 (μM)

molecule	reportedResult
COC(=O)N1CC(Oc2cc(N(C)C3CCC(F)(F)CC3)nc(-c3nc(C)cs3)n2)C1	+ (+ means >1 uM)
Cc1csc(-c2nc(NC3CCC(F)(F)CC3)cc(N3CC(F)(F)OC(F)(F)C3)n2)n1 [IN11030-032-P1]	+++ (+++ means <200 nM)
FCc1ccn(-c2nc(NC3CC=CCC3)cc(N3CCOCC3)n2)n1 (stereo not drawn)	+ (+ means >1 uM)
Cc1cc(NC2CCC(F)(F)CC2)nc(-c2nc(C3CC3)cs2)n1 [IN11147-062-P1]	+ (+ means >1 uM)
Cc1csc(-c2nc(NC3CCC(F)(F)CC3)c(O)c(=O)[nH]2)n1 [IN11039-094-P1]	+ (+ means >1 uM)

Return reported SC100 (μM); argument: Cc1ccn(-c2cc(OCCn3nncc3C)cc(NC3CCC(F)(F)CC3)n2)n1
+++ (+++ means <200 nM)

Look at this molecule and give its reported SC100 (μM). Cc1ccn(-c2nc(N3CCCCCC3)cc(N3CCOC(CO)C3)n2)n1 (stereo not drawn) [IN10882-068-P1]
+ (+ means >1 uM)

Fill blank: measured SC100 (μM) of the molecule Cc1ccn(-c2nc(NC3CCC(N)CC3)cc(N3CCOCC3)n2)n1 (stereo not drawn) is ____.
+ (+ means >1 uM)

Fill in: SC100 (μM) of Cc1ccn(-c2nc(N[C@@H]3CCCC[C@H]3F)cc(N3CCOCC3)n2)n1 [IN11133-031-P1] is ___
+ (+ means >1 uM)
